meta.source: paper PMC10322960

- System name: UniProtKB Q9Y6L6
- Sequence (Q9Y6L6 1-691): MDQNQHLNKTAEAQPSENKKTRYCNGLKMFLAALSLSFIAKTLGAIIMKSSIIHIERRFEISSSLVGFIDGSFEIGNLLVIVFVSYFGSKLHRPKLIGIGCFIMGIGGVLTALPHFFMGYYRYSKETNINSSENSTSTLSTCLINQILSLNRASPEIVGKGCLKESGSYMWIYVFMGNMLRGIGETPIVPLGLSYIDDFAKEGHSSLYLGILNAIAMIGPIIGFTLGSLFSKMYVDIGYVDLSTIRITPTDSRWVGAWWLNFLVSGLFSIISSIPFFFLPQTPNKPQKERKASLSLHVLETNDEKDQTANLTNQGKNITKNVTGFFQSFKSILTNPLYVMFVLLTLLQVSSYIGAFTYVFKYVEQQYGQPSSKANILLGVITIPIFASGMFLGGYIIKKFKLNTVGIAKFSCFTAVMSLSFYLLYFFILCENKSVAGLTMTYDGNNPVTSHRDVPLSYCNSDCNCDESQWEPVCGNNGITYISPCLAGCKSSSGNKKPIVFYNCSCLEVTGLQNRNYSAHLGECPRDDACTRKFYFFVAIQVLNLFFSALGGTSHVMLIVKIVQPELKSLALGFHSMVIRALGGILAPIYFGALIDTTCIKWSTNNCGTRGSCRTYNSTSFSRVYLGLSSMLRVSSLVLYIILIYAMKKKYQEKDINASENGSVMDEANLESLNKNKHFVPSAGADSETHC
- Experiment notes: OATP1B1 uptake inhibition assay
- Type: in vitro ADME
- Particulars: read-out: Inhibition results (IC50), OATP1B1 UPT; uptake assay
Endpoint name: IC50 (µM)
The reply should be a number in µM, with the unit left off.

Record request: IC50 value, item N#Cc1ccc(N2N=C3c4ccc(C(=O)N5CCC(O)CC5)nc4CC[C@@H]3[C@@H]2C2CCCC2)cc1Cl [Ocedurenone, ocedurenone]
21.9
